Where these numbers come from: patent US20210300932A1

# assay-text: In vivo pharmacokinetic assessments in rodents
# experimental-context: male, CD-1, mouse, in vivo, iv, 5 mg/kg
parameter: AUC(0-t)
Could you give the number and then its unit, please?

Q: For the molecule CC(C)C[C@@H]1NC(=O)c2ccc(-c3ccc(N4CCNCC4)cc3)c(c2)CNC(=O)[C@@H]2CCCN2[C@H](C(=O)NC(C)(C)C)[C@H](C)NC(=O)[C@H]([C@@H](C)O)NC(=O)[C@H](CC(=O)O)NC1=O [Compound No. 340] , what AUC(0-t) is on record?
Result: 778 ng·h/mL

###

# assay-text: in vivo
# experimental-context: male, CD-1, mouse, po, 40 mg/kg
parameter: AUC(0-inf)
Could you give the number and then its unit, please?

Q: For the compound CC(C)C[C@@H]1NC(=O)c2ccc(-c3ccc(N4CCNCC4)cc3)c(c2)CNC(=O)[C@@H]2CCCN2[C@H](C(=O)NC(C)(C)C)[C@H](C)NC(=O)[C@H]([C@@H](C)O)NC(=O)[C@H](CC(=O)O)NC1=O [Compound No. 340] , what AUC(0-inf) is on record?
Result: 690 ng·h/mL

###

# Test system: plasma proteins
# assay-text: in vitro
# experimental-context: CD-1, mouse, % unbound (Cbuffer/Cplasma) 3
parameter: fraction unbound at 5 hours, 1 microM
Reply with the value as a number alone.

Q: For the compound CC[C@H](C)[C@@H]1NC(=O)[C@H](CC(=O)O)NC(=O)[C@H](CC(C)C)NC(=O)[C@H](Cc2ccc3ccccc3c2)NC(=O)[C@@H]2CCCN2[C@H](C(=O)NC(C)(C)C)[C@H](C)NC1=O [Compound No. 15] , what fraction unbound at 5 hours, 1 microM is on record?
Result: 0.136

###

# assay-text: in vitro
# experimental-context: Control buffer/Buffer at 0.1 uM % Recovery
parameter: recovery at 5 hours, 0.1 uM
Could you give the number and then its unit, please?

Observe how each entry below is paired with its result.
{"compound": "CC(C)C[C@@H]1NC(=O)[C@H](Cc2ccc(-c3ccccc3)cc2)NC(=O)[C@@H]2CCCN2[C@H](C(=O)NC(C)(C)C)[C@H](C)NC(=O)[C@H]([C@@H](C)O)NC(=O)[C@H](CC(=O)O)NC1=O [Compound No. 12]", "recovery at 5 hours, 0.1 uM": "128%"}
{"compound": "CC[C@H](C)[C@@H]1NC(=O)[C@H](CC(=O)O)NC(=O)[C@H](CC(C)C)NC(=O)[C@H](Cc2ccc3ccccc3c2)NC(=O)[C@@H]2CCCN2[C@H](C(=O)NC(C)(C)C)[C@H](C)NC1=O [Compound No. 15]", "recovery at 5 hours, 0.1 uM": "70%"}

Q: For the compound CC(C)C[C@@H]1NC(=O)[C@H](Cc2ccccc2)NC(=O)[C@@H]2CCCN2[C@H](C(=O)NC(C)(C)C)[C@H](C)NC(=O)[C@H]([C@@H](C)O)NC(=O)[C@H](CC(=O)O)NC1=O [Compound No. 5] , what recovery at 5 hours, 0.1 uM is on record?
Result: 108%

###

# assay-text: in vivo
# experimental-context: male, CD-1, mouse, iv, 5 mg/kg
parameter: Vd (L/kg)
Report the figure in L/kg without appending any unit label.

Q: For the compound CC(C)C[C@@H]1NC(=O)c2ccc(-c3ccc(N4CCNCC4)cc3)c(c2)CNC(=O)[C@@H]2CCCN2[C@H](C(=O)NC(C)(C)C)[C@H](C)NC(=O)[C@H]([C@@H](C)O)NC(=O)[C@H](CC(=O)O)NC1=O [Compound No. 340] , what Vd is on record?
Result: 4.49
